- Tested on: SK-OV-3
- PROCEDURE SUMMARY: Cytotoxicity against human SKOV3 cells under aerobic condition after 5 days by SRB assay
- Format: functional, cell-based
- ASSAY CONDITIONS: SK-OV-3, 120 h
pIC50: −log10 of the molar value.
// Condition not met strictly below 6 in pIC50; Condition met otherwise

Given the entry COc1cc2cc(C(=O)N3CC(CCl)c4c3cc([N+](=O)[O-])c3cc(C(=O)NCCN(C)C)ccc43)[nH]c2c(OC)c1OC (stereo not given) , answer whether its pIC50 meets or surpasses 6. Condition not met

// inclusive: pIC50 at least 6? input: CN(C)CCOc1ccc2[nH]c(C(=O)N3CC(CCl)c4c3cc([N+](=O)[O-])c3cc(S(=O)(=O)NN)ccc43)cc2c1 (stereo not given) Condition not met

Please check the record COc1cc2cc(C(=O)N3CC(CCl)c4c3cc([N+](=O)[O-])c3ccc(C(=O)NCCN(C)C)cc43)[nH]c2c(OC)c1OC (stereo not given) and state if its pIC50 is at or above 6. Condition not met

Record CN(C)CCOc1ccc2[nH]c(C(=O)N3CC(CCl)c4c3cc([N+](=O)[O-])c3cc(N)ccc43)cc2c1 (stereo not given) ; criterion: pIC50 no lower than 6. Met? Condition not met

Is pIC50 for CNS(=O)(=O)c1ccc2c3c(cc([N+](=O)[O-])c2c1)N(C(=O)c1cc2cc(OCCN(C)C)ccc2[nH]1)CC3CCl (stereo not given) at or above 6? Condition not met

Quick check: does CN(C)CCOc1ccc2[nH]c(C(=O)N3CC(CCl)c4c3cc([N+](=O)[O-])c3cc(S(=O)(=O)NO)ccc43)cc2c1 (stereo not given) have pIC50 greater than or equal to 6? Condition not met

Determine whether measured pIC50 meets or exceeds 6 for CNS(=O)(=O)c1ccc2c3c(cc(N)c2c1)N(C(=O)c1cc2cc(OCCN(C)C)ccc2[nH]1)CC3CCl (stereo not given) Condition met

Does pIC50 meet or surpass 6 for CN(C)CCOc1ccc2[nH]c(C(=O)N3CC(CCl)c4c3cc([N+](=O)[O-])c3cc(S(=O)(=O)N(C)C)ccc43)cc2c1 (stereo not given) ? Condition met

# check: pIC50 of CN(C)CCOc1ccc2[nH]c(C(=O)N3CC(CCl)c4c3cc([N+](=O)[O-])c3cc(S(N)(=O)=O)ccc43)cc2c1 (stereo not given) is greater than or equal to 6 Condition not met
